- assay_target: T1, human serum albumin (human, UniProt P02768 25-609)
- T1 construct: also called HSA; HAS
- test_description: table of affinities (KD); BIACORE on serum albumin-coated chip according to Example 1;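 note: surface plasmon resonance with dAbs flowed over a chip carrying human, rat or mouse serum albumin, blocked uncoated flow cell as reference, KD from on- and off-rate curve fits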
Answer each item with its documented Kd.
Give bare numbers, in nM.

# binder, Kd (nM)
data = [
    ("DOM7h-23 (other) VH: EVQLLESGGGLVQPGGSLRLSCAASGFTFYDYNMSWVRQAPGKGLEWVSTITHTGGVTYYADSVKGRFTISRDNSKNTLYLQMNSLRAEDTAVYYCAKQNPSYQFDYWGQGTLVTVSS", 900),
]

Could you now look at the following binder, please?
I would be grateful if you could share the reported Kd for DOM7h-7 (other) VL: DIQMTQSPSSLSASVGDRVTITCRASQSISSYLNWYQQKPGKAPKLLIYRNSQLQSGVPSRFSGSGSGTDFTLTISSLQPEDFATYYCQQTFAVPPTFGQGTKVEIKR . 400
